# Test system: NK1 receptor
# Run description: NK1 Receptor Antagonism Assay (calcium imaging, substance P stimulation)
# Format: cell-based, human
# Condition context: summary of Table 1
Reported endpoint: effect as the NK1 receptor antagonist (in words)

Compound: OC[C@H]1O[C@H](O[C@H]2[C@H](O)[C@@H](O)C(O)O[C@@H]2CO)[C@H](O)[C@@H](O)[C@@H]1O (mixture of isomers) [Maltose, maltose]
Result: high effect
--
Compound: OC[C@H]1O[C@H](O[C@H]2[C@H](O)[C@@H](O)[C@@H](O[C@H]3[C@H](O)[C@@H](O)[C@@H](O[C@H]4[C@H](O)[C@@H](O)C(O)O[C@@H]4CO)O[C@@H]3CO)O[C@@H]2CO)[C@H](O)[C@@H](O)[C@@H]1O (stereo partly drawn) [Maltotetraose, maltotetraose]
Result: high effect
